Test system: iNOS transcripts
Experiment: Inhibition of LPS induction of iNOS transcripts in macrophages (rt-PCR)
Format: cell-based
Conditions: Mus musculus, Macrophage; LPS-treated murine macrophages, mRNA transcripts by rt-PCR
measured_metric: IC50 (nM)
Only the number, expressed in nM, is required.

**Q:** Hello, I am looking for reported IC50 with iNOS transcripts for CCCCCCN1C(=S)SCC1(O)c1ccccc1 (stereo not shown) [COB-212] . Could you help?
**A:** 3400

**Q:** Hello, I am looking for reported IC50 with iNOS transcripts for S=c1scc(-c2ccccc2)n1CCc1ccccc1 [COB-177] . Could you help?
**A:** 32000

**Q:** Hello, I am looking for reported IC50 with iNOS transcripts for COc1ccc(-c2csc(=S)n2Cc2cccnc2)cc1 [COB-206] . Could you help?
**A:** 54000

**Q:** Hello, I am looking for reported IC50 with iNOS transcripts for OC1(c2cc(C(F)(F)F)ccc2Cl)CSC(=S)N1Cc1cccnc1 (stereo not shown) [COB-226] . Could you help?
**A:** 1500

**Q:** Hello, I am looking for reported IC50 with iNOS transcripts for Oc1ccc(Cl)cc1C1(O)CSC(=S)N1Cc1ccccc1 (stereo not shown) [COB-221] . Could you help?
**A:** 1800

**Q:** Hello, I am looking for reported IC50 with iNOS transcripts for CCCN1C(=S)SCC1(O)c1cccnc1 (stereo not shown) [COR-207] . Could you help?
**A:** 2700

**Q:** Hello, I am looking for reported IC50 with iNOS transcripts for COc1ccc(C2(O)CSC(=S)N2Cc2cccnc2)c(OC)c1 (stereo not shown) [COB-199] . Could you help?
**A:** 2200

**Q:** Hello, I am looking for reported IC50 with iNOS transcripts for Cc1ccc(C)c(C2(O)CSC(=S)N2Cc2cccnc2)c1 (stereo not shown) [COB-223] . Could you help?
**A:** 400

**Q:** Hello, I am looking for reported IC50 with iNOS transcripts for CCCN1C(=S)SCC1(O)c1ccc(Cl)c(Cl)c1 (stereo not shown) [COB-210] . Could you help?
**A:** 2000

**Q:** Hello, I am looking for reported IC50 with iNOS transcripts for O=c1oc2ccccc2cc1C1(O)CSC(=S)N1Cc1cccnc1 (stereo not shown) [COB-202] . Could you help?
**A:** 2200

**Q:** Hello, I am looking for reported IC50 with iNOS transcripts for COc1ccc(-c2c[nH]c(=S)n2C)c(OC)c1 [COB-130] . Could you help?
**A:** 26000

**Q:** Hello, I am looking for reported IC50 with iNOS transcripts for Cn1c(-c2ccc(OC(F)(F)F)cc2)c[nH]c1=S [COB-134] . Could you help?
**A:** 87000

**Q:** Hello, I am looking for reported IC50 with iNOS transcripts for COc1ccc(C2(O)CSC(=S)N2Cc2cccnc2)cc1 (stereo not shown) [COB-201] . Could you help?
**A:** 450

**Q:** Hello, I am looking for reported IC50 with iNOS transcripts for CCCn1c(-c2cccnc2)csc1=S [COB-214] . Could you help?
**A:** 10500

**Q:** Hello, I am looking for reported IC50 with iNOS transcripts for CCCn1c(-c2cc(OC)ccc2OC)csc1=S [COB-220] . Could you help?
**A:** 3750

**Q:** Hello, I am looking for reported IC50 with iNOS transcripts for COc1ccc(OC)c(C2(O)CSC(=S)N2Cc2cccnc2)c1 (stereo not shown) [COB-197] . Could you help?
**A:** 2500

**Q:** Hello, I am looking for reported IC50 with iNOS transcripts for OC1(c2ccccc2)CSC(=S)N1Cc1ccncc1 (stereo not shown) [COB-187] . Could you help?
**A:** 375

**Q:** Hello, I am looking for reported IC50 with iNOS transcripts for OC1(c2ccccc2)CSC(=S)N1Cc1ccc2[nH]ccc2c1 (stereo not shown) [COB-188] . Could you help?
**A:** 250

**Q:** Hello, I am looking for reported IC50 with iNOS transcripts for OC1(c2ccccc2)CSC(=S)N1Cc1cccc(CN2C(=S)SCC2(O)c2ccccc2)c1 (stereo not shown) [COB-186] . Could you help?
**A:** 1900

**Q:** Hello, I am looking for reported IC50 with iNOS transcripts for Cn1c(-c2cccc(Cl)c2)c[nH]c1=S [COB-119] . Could you help?
**A:** 60000

###

Assay: MTS signal (cell metabolism/viability)
Assay type: cell-based, Murine
Settings: mouse, murine macrophages; concentration required to diminish the MTS signal by 50%; read-out: Average TC50
measured_metric: CC50 (µM)
Only the number, expressed in µM, is required.

**Q:** I have this compound here, Oc1ccc(Cl)cc1C1(O)CSC(=S)N1Cc1cccnc1 (centres unmarked) [COB-222] , and I need its recorded CC50.
**A:** 15

**Q:** I have this compound here, OC1(c2ccccc2)CSC(=S)N1Cc1cccnc1 (centres unmarked) [COB-152] , and I need its recorded CC50.
**A:** 18

**Q:** I have this compound here, Cc1ccccc1C1(O)CSC(=S)N1Cc1cccnc1 (centres unmarked) [COB-224] , and I need its recorded CC50.
**A:** 13

**Q:** I have this compound here, O=c1oc2ccccc2cc1C1(O)CSC(=S)N1Cc1cccnc1 (centres unmarked) [COB-202] , and I need its recorded CC50.
**A:** 43

###

Exercise: state measured pIC50 for each of the molecules provided.
Test system: IL-6 transcripts
Test: Inhibition of LPS induction of IL-6 transcripts in macrophages (rt-PCR)
Type: cell-based, Murine
Conditions: Mus musculus, Macrophage; LPS-treated murine macrophages, mRNA transcripts by rt-PCR
On this scale, pIC50 is minus log10 of a concentration expressed in M (mol/L).

**Q:** I have this molecule here, CCCn1c(-c2cc(OC)ccc2OC)csc1=S , and I need its recorded pIC50.
**A:** 5.26

**Q:** I have this molecule here, CCCn1c(-c2ccc(C#N)cc2)csc1=S , and I need its recorded pIC50.
**A:** 5.09

**Q:** I have this molecule here, CCCn1c(-c2cccc([N+](=O)[O-])c2)csc1=S , and I need its recorded pIC50.
**A:** 5.06

**Q:** I have this molecule here, COc1ccc(OC)c(C2(O)CSC(=S)N2Cc2ccccc2)c1 (centres unmarked) , and I need its recorded pIC50.
**A:** 4.89

**Q:** I have this molecule here, OC1(c2ccccc2)CSC(=S)N1Cc1nc2ccccc2[nH]1 (centres unmarked) , and I need its recorded pIC50.
**A:** 4.72

**Q:** I have this molecule here, COc1ccc(OC)c(-c2csc(=S)n2Cc2cccnc2)c1 , and I need its recorded pIC50.
**A:** 4.71

**Q:** I have this molecule here, COc1cccc(-c2c[nH]c(=S)n2C)c1 , and I need its recorded pIC50.
**A:** 4.52

**Q:** I have this molecule here, OC1(c2cc(C(F)(F)F)ccc2Cl)CSC(=S)N1Cc1cccnc1 (centres unmarked) , and I need its recorded pIC50.
**A:** 4.90

**Q:** I have this molecule here, COc1ccc(-c2csc(=S)n2Cc2cccnc2)c(OC)c1 , and I need its recorded pIC50.
**A:** 5.30

**Q:** I have this molecule here, Cc1ccccc1C1(O)CSC(=S)N1Cc1cccnc1 (centres unmarked) , and I need its recorded pIC50.
**A:** 5.46

**Q:** I have this molecule here, COc1ccc(-c2c[nH]c(=S)n2C)c(OC)c1 , and I need its recorded pIC50.
**A:** 4.54

**Q:** I have this molecule here, CCn1c(-c2cccc(Cl)c2)c[nH]c1=O , and I need its recorded pIC50.
**A:** 4.51

**Q:** I have this molecule here, Oc1ccc(Cl)cc1C1(O)CSC(=S)N1Cc1cccnc1 (centres unmarked) , and I need its recorded pIC50.
**A:** 5.07

**Q:** I have this molecule here, Cn1c(-c2ccc(OC(F)(F)F)cc2)c[nH]c1=S , and I need its recorded pIC50.
**A:** 4.18

**Q:** I have this molecule here, CCCN1C(=S)SCC1(O)c1ccc(Cl)c(Cl)c1 (centres unmarked) , and I need its recorded pIC50.
**A:** 4.80

**Q:** I have this molecule here, OC1(c2ccccc2)CSC(=S)N1CCCc1ccccc1 (centres unmarked) , and I need its recorded pIC50.
**A:** 4.77

**Q:** I have this molecule here, Cn1c(-c2cccc(Cl)c2)c[nH]c1=S , and I need its recorded pIC50.
**A:** 4.35

**Q:** I have this molecule here, Cc1ccc(C)c(C2(O)CSC(=S)N2Cc2cccnc2)c1 (centres unmarked) , and I need its recorded pIC50.
**A:** 5.46

**Q:** I have this molecule here, OC1(c2ccccc2)CSC(=S)N1Cc1cccnc1 (centres unmarked) , and I need its recorded pIC50.
**A:** 5.37

**Q:** I have this molecule here, CCCn1c(-c2ccc(Cl)c(Cl)c2)csc1=S , and I need its recorded pIC50.
**A:** 5.07

**Q:** I have this molecule here, COc1ccc(-c2csc(=S)n2Cc2cccnc2)cc1 , and I need its recorded pIC50.
**A:** 4.98

**Q:** I have this molecule here, CCCn1c(-c2cccnc2)csc1=S , and I need its recorded pIC50.
**A:** 5.22

**Q:** I have this molecule here, CCCCCCn1c(-c2ccccc2)csc1=S , and I need its recorded pIC50.
**A:** 5.02

**Q:** I have this molecule here, COc1ccc(-c2c[nH]c(=S)n2C)cc1OC , and I need its recorded pIC50.
**A:** 4.72

**Q:** I have this molecule here, CCCN1C(=S)SCC1(O)c1cccnc1 (centres unmarked) , and I need its recorded pIC50.
**A:** 4.92

**Q:** I have this molecule here, COc1ccc(OC)c(-c2c[nH]c(=S)n2C)c1 , and I need its recorded pIC50.
**A:** 4.59

**Q:** I have this molecule here, S=c1scc(-c2ccccc2)n1CCc1ccccc1 , and I need its recorded pIC50.
**A:** 5.10

**Q:** I have this molecule here, COc1ccc(F)cc1C1(O)CSC(=S)N1Cc1cccnc1 (centres unmarked) , and I need its recorded pIC50.
**A:** 4.49
